biological target: UniProtKB P00751; assay: factor B inhibition assay of Biological Example 1; type: biochemical; design: CVF-Bb complex prepared from purified cobra venom factor (1 μM), recombinant human complement factor B; made in house; host or cells: drosophila cells (factor B); E. coli (factor D used to form the complex); conditions: IC50 (nM), assay of Biological Example 1 (Table 1)
Endpoint Name: IC50 (nM)

| Compound | Unit Text | Endpoint Value |
| --- | --- | --- |
| COc1cc(C)c2[nH]ccc2c1C(OC)(c1nc2cc(C#N)ccc2[nH]1)C(F)(F)F (single isomer, unassigned; (+)) [34-B b) (+)] | nM | 50 |
| COc1cc(C)c2[nH]ccc2c1C(OC)c1nc2cc(C#N)ccc2[nH]1 (racemic) [30-B b) (−)] | nM | 160 |
| Cc1cc(Cl)c(C(C)(O)c2nc3cc(C#N)ccc3[nH]2)c2cc[nH]c12 (single isomer, unassigned; (-)) [79-E b) (−)] | nM | 350 |
| Cc1cc(OC(C)C)c(C(O)c2nc3cc(C#N)ccc3[nH]2)c2cc[nH]c12 (single isomer, unassigned; (+)) [24-D b) (+)] | nM | 1980 |

###

biological target: factor B (Homo sapiens, UniProt P00751); assay: factor B inhibition assay of Biological Example 1; format: biochemical; set-up: CVF-Bb complex prepared from purified cobra venom factor (1 μM), recombinant human complement factor B; made in house; host or cells: drosophila cells (factor B); E. coli (factor D used to form the complex); details: IC50 (nM), assay of Biological Example 1 (Table 1)
Sequence (P00751 260-764 limits assumed): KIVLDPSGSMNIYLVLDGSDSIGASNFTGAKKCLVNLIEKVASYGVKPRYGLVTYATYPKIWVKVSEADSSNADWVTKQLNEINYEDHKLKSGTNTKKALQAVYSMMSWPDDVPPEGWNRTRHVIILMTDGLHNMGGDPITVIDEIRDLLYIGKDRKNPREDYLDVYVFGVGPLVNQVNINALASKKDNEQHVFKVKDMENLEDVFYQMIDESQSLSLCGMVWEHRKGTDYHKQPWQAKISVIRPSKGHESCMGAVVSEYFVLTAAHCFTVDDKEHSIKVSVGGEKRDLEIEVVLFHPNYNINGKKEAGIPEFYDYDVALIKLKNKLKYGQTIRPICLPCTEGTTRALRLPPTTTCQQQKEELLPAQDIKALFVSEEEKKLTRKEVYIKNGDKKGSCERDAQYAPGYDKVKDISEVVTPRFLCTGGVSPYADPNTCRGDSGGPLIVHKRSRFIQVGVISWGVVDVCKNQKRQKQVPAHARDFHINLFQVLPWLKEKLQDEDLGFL
Sequence (Q91132 23-649 partner limits assumed): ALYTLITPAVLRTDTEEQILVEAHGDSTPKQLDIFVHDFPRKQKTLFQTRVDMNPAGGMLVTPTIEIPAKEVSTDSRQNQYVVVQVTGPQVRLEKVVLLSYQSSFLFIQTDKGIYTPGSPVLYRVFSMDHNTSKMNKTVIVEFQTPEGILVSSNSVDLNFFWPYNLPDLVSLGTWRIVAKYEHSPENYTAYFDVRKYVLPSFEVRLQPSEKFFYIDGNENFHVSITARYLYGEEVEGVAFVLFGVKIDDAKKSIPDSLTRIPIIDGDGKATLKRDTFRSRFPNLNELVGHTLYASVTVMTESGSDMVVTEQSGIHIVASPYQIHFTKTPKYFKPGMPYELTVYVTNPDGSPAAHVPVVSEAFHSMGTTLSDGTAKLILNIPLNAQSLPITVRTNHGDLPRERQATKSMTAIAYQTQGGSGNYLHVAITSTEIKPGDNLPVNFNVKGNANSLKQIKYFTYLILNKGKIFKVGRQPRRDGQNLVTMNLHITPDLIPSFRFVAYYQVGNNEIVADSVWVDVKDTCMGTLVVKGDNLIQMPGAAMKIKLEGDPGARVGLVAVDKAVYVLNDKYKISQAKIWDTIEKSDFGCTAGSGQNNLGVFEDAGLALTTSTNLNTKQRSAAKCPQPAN
Sequence (Q91132 733-984 partner limits assumed): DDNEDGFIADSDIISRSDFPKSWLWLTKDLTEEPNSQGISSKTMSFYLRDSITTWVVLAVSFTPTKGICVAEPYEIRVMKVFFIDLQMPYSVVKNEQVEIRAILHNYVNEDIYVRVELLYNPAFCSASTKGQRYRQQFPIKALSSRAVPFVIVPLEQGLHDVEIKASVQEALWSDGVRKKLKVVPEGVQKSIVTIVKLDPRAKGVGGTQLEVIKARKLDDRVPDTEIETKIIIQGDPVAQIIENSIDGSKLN
Sequence (Q91132 1264-1642 partner limits assumed): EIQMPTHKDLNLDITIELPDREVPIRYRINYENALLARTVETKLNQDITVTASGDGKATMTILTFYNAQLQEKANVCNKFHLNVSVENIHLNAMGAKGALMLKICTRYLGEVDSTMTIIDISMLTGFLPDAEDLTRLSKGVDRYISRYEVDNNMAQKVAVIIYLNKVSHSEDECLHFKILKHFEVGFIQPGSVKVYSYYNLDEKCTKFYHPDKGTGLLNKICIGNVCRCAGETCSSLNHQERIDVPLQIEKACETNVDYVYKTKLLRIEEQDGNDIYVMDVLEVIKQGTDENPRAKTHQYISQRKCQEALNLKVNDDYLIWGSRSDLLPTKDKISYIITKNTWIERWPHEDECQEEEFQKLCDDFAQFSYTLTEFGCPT
compounds and their reported IC50

| Compound | Target Entity | IC50, nM |
| --- | --- | --- |
| COc1cc2[nH]c(Cc3c(C)cc(C)c4[nH]ccc34)nc2cc1C#N | factor B (Homo sapiens, UniProt P00751) | 83200 |
| CCOc1cc(C)c2[nH]ccc2c1C(C)(O)c1nc2cc(C#N)ccc2[nH]1 (single isomer, unassigned; (-)) [26-D b) (−)] | factor B (Homo sapiens, UniProt P00751) | 440 |
| CNC(C)(c1nc2cc(C#N)ccc2[nH]1)c1c(C)cc(C)c2[nH]ccc12 (racemic) | factor B (Homo sapiens, UniProt P00751) | 50 |
| CNC(C)(c1nc2cc(C#N)ccc2[nH]1)c1c(OC)cc(C)c2[nH]ccc12 (single isomer, unassigned; (+)) [42-D b) (+)] | factor B (Homo sapiens, UniProt P00751) | 130 |
| CCc1cc(C)c2[nH]ccc2c1C(N)c1nc2cc(C#N)ccc2[nH]1 (single isomer, unassigned; (+)) [96-C b) (+)] | factor B (Homo sapiens, UniProt P00751) | 2210 |
| CCc1cc(C)c2[nH]ccc2c1C(NC)(c1nc2cc(C#N)ccc2[nH]1)C(F)(F)F (single isomer, unassigned; (-)) [107-B b) (−)] | factor B (Homo sapiens, UniProt P00751) | 3 |
| Cc1cc(C)c2[nH]cc(Br)c2c1Cc1nc2cc(C#N)ccc2[nH]1 | factor B (Homo sapiens, UniProt P00751) | 220 |
| CCc1cc(C)c2[nH]cc(C(O)C(F)(F)F)c2c1Cc1nc2cc(C#N)ccc2[nH]1 (racemic) | factor B (Homo sapiens, UniProt P00751) | 9750 |
| COCC(C)Oc1cc(C)c2[nH]ccc2c1Cc1nc2cc(C#N)ccc2[nH]1 (racemic) | factor B (Homo sapiens, UniProt P00751) | 2650 |
| CCC(O)(c1nc2cc(C#N)ccc2[nH]1)c1c(OC(C)C)cc(C)c2[nH]ccc12 (single isomer, unassigned; (+)) [26-F b) (+)] | factor B (Homo sapiens, UniProt P00751) | 230 |
| CCc1cc(C)c2[nH]ccc2c1C(N)(c1nc2cc(C#N)ccc2[nH]1)C(F)(F)F (single isomer, unassigned; (-)) [107-C b) (−)] | factor B (Homo sapiens, UniProt P00751) | 30 |
| COc1cc(C)c2[nH]ccc2c1C(O)c1nc2ccc(C#N)cc2s1 (racemic) | factor B (Homo sapiens, UniProt P00751) | 70 |
| COc1cc(C)c2[nH]cc(Cl)c2c1C(C)(O)c1nc2cc(C#N)ccc2[nH]1 (single isomer, unassigned) [Example 29-B] | factor B (Homo sapiens, UniProt P00751) | 2570 |
| Cc1cc(C)c2[nH]ccc2c1C(C)(N)c1nc2cc(C#N)ccc2[nH]1 (racemic) [101-E b) (−)] | factor B (Homo sapiens, UniProt P00751) | 50 |

From: patent US9056874B2
